Readings of growth for the listed compounds
Test system: HCT-15 colon
experimentSummary: NCI-60 one-dose screen, 48 h (100 = growth as untreated, 0 = no growth, -100 = all killed)
testSettings: 10 µM unless noted
This is part of a sample that, as a whole, favours compounds with a hit. Of some 83,000 tested, about 20% had one in any assay.
Answer with a number only, understood to be in %.

structureString: C/C(=N/OC(=O)N(C)C)c1ccc(Cl)c(Cl)c1
targetOfAssay: HCT-15 colon
unitsText: %
growth: 107
//
structureString: O=C(O)C(F)F
targetOfAssay: HCT-15 colon
unitsText: %
growth: 106
//
structureString: O=[N+]([O-])c1ccc(P(=O)(O)O)cc1
targetOfAssay: HCT-15 colon
unitsText: %
growth: 103
//
structureString: CNC(=O)Oc1ccc(Cl)cc1SSc1cc(Cl)ccc1OC(=O)NC
targetOfAssay: HCT-15 colon
unitsText: %
growth: 72.7
//
structureString: O=C1C=C(N2CC2)c2ccccc2C1=O
targetOfAssay: HCT-15 colon
unitsText: %
growth: 79.6

Asked: Request the reported growth associated with C=CC[PH+](c1ccccc1)c1ccccc1.C=CC[PH+](c1ccccc1)c1ccccc1.[Pt+2].[S-]c1nc2ccccc2[nH]1.[S-]c1nc2ccccc2[nH]1
Given back: 70

* * *

Test system: COLO 205 colon
experimentSummary: NCI-60 one-dose screen, 48 h (100 = growth as untreated, 0 = no growth, -100 = all killed)
testSettings: 10 µM unless noted
The panel holds about 83,000 compounds, 20% with a hit somewhere; the sample as a whole holds those more often. Calls of active or inactive are those of the source. The calls were made as follows: active = growth percent below 10; inactive = the rest.
The entries below are paired with their reported growth.

Asked: Would you kindly share the measured growth for O=NN(c1ccccc1)c1ccccc1 ?
Given back: 110% (inactive)

Asked: For the compound CC1=CC(=Nc2ccc(N(CCCl)CCCl)cc2)C=C(C)C1=O , what growth is on record?
Given back: 39.5% (inactive)

Asked: State the recorded growth for this entry: CN(C)c1ccc(C=C2C(=O)NC(=O)NC2=O)cc1
Given back: 107% (inactive)

Asked: I am curious: what growth value has been reported for COC(=O)[C@@H](C)C[C@H](Cc1ccccc1)NC(=O)c1cccc([C@@H](C[C@H](C(C)C)N(C)C(=O)[C@@H](NC(=O)[C@H]2CCCCN2C)C2CC2)OC(C)=O)n1 ?
Given back: -69% (active)

Asked: Item N#CC(C#N)=C(C#N)C#N has what recorded growth?
Given back: 114% (inactive)

* * *

Test system: SW-620 colon
experimentSummary: NCI-60 one-dose screen, 48 h (100 = growth as untreated, 0 = no growth, -100 = all killed)
testSettings: 10 µM unless noted
About 83,000 compounds went through this panel and 20% of them were active in at least one assay; those are over-represented in the sample as a whole.
parameterMeasured: growth (%)
Write it as a number; the unit % goes unstated.

Observe how each entry below is paired with its result.
compound: CCCCOC(N)=O
growth (%): 113

compound: Cn1cc(-c2csc(-c3cn(CCCCN4CCOCC4)c4ccc(F)cc34)n2)c2cccnc21
growth (%): 19.7

compound: CC[C@H](C)[C@H](NC(=O)C12CC(NC)(C1)C2)C(=O)N(C)[C@H](C[C@@H](OC(C)=O)c1nc(C(=O)N[C@@H](Cc2ccccc2)C[C@H](C)C(=O)OC)cs1)C(C)C
growth (%): 39.5

Asked: Which growth is reported for this compound? O=C(NC(Cl)=C(Cl)Cl)P(=O)(c1ccccc1)c1ccccc1
Given back: 112

Asked: Recorded growth of CNC(=O)O/N=C(\SC)C(=O)N(C)C , please.
Given back: 106

Asked: Which growth value belongs to O=C(CBr)OCCOC(=O)CBr ?
Given back: 58.1

* * *

growth values, listed per item
Tested on: SNB-19 CNS
experimentSummary: NCI-60 one-dose screen, 48 h (100 = growth as untreated, 0 = no growth, -100 = all killed)
testSettings: 10 µM unless noted
Procedure: Growth inhibition of the SNB-19 human tumor cell line is measured as a screen for anti-cancer activity. Cells are grown in 96 well plates and exposed to the test compound for 48 hours. Compounds are tested at a single concentration, which is 10^-5 M for most compounds. The reported endpoint is percent growth (GI% or GIPRCNT), where numbers from 0 - 100% represent growth inhibition, and numbers from -100% - 0 represent cell death. For example, a value of 40 represents 60% growth inhibition. […]
This is part of a sample that, as a whole, favours compounds with a hit. Of some 83,000 tested, about 20% had one in any assay.
Give the quantity in %, number only.

Field: example entries. Status: answers known.
compound: C=CC1CN2CCC1CC2C(O)c1ccnc2ccccc12 (centres undefined)
parameterMeasured: growth
measValue: 124
//
compound: O=[N+]([O-])c1ccc2scc3c4ccccc4nc-3c2c1
parameterMeasured: growth
measValue: 46.7
//
compound: O=S(=O)(F)c1cccc(Cl)c1C[P+](c1ccccc1)(c1ccccc1)c1ccccc1
parameterMeasured: growth
measValue: 100

Asked: Quick check: growth of Oc1ccccc1C=NCCN=Cc1ccccc1O.[Fe] ?
Given back: 87.1

Asked: I'd like to know its growth. The compound in question is CC1(C)C=Cc2c(ccc3c2[N+]([O-])=C2C3=C[C@@]34NC(=O)[C@]5(CCCN5C3=O)C[C@@H]4C2(C)C)O1
Given back: 50.7

Asked: Given the compound COC(=O)C1=CO[C@@H](C)[C@@H]2CN3CCc4c([nH]c5cc(OC)ccc45)[C@@H]3C[C@H]12 , what is its reported growth?
Given back: 95.2

Asked: Tell me the measured growth of O=S(=O)(c1ccc(O)cc1)c1ccccc1O , please.
Given back: 104

Asked: Item O=[N+]([O-])c1cc(Cl)c(Cl)c([N+](=O)[O-])c1Cl has what recorded growth?
Given back: 103

Asked: # query: growth of entry O=C1CCCCC1CN1CCCCC1 (centres undefined)
Given back: 108

* * *

Test system: T-47D breast
experimentSummary: NCI-60 one-dose screen, 48 h (100 = growth as untreated, 0 = no growth, -100 = all killed)
testSettings: 10 µM unless noted
Compounds without any hit were thinned out: in the full panel of roughly 83,000, 20% have a hit.
parameterMeasured: growth (%)
Response body: numeric value in %, unit text excluded.

molecule: Cc1ccc(N2CCN(CCC#N)CC2)cc1
unitsText: %
growth: 90.9

Asked: Name the recorded growth for O=[N+]([O-])c1ccc(OCc2ccc(S(=O)(=O)F)c(Cl)c2)c(Cl)c1 .
Given back: 97

Asked: # lookup: growth of CC/C(=C(\c1ccc(OCCN2CCOCC2)cc1)c1ccc(OC(=O)Cc2ccccc2)cc1)c1ccc(Cl)cc1
Given back: 63.5

Asked: Given the molecule CC/C(Cc1ccccc1)=C(\c1ccc(OCCN2CCCC2)cc1)c1ccc(OC(=O)NCc2ccccc2)cc1 , what is its reported growth?
Given back: 21.2

Asked: Value lookup for growth; key = COC12CC3C4=CCOC5CC(=O)N6c7ccccc7C1(CCN2C4)C6C53 (stereo not given)
Given back: 103

* * *

Tested on: SF-268 CNS
experimentSummary: NCI-60 one-dose screen, 48 h (100 = growth as untreated, 0 = no growth, -100 = all killed)
testSettings: 10 µM unless noted
The panel holds about 83,000 compounds, 20% with a hit somewhere; the sample as a whole holds those more often.
Rule: growth below 50% gives yes (1). Equal to or above 50% gives no (0).

compound: CC1OC(=O)C(C(C)C)NC(=O)C(C(C)C)OC(=O)C(C(C)C)NC(=O)C(C)OC(=O)C(C(C)C)NC(=O)C(C(C)C)OC(=O)C(C(C)C)NC(=O)C(C)OC(=O)C(C(C)C)NC(=O)C(C(C)C)OC(=O)C(C(C)C)NC1=O (stereo unspecified)
targetOfAssay: SF-268 CNS
group: yes (1)
--
compound: CCCCOC(N)=O
targetOfAssay: SF-268 CNS
group: no (0)
--
compound: Cc1ccc(NC2=N[C@]34CC(=O)CC[C@]3(C)[C@H]3CC[C@]5(C)C(=O)CC[C@H]5[C@@H]3C[C@@H]4S2)c(C)c1
targetOfAssay: SF-268 CNS
group: yes (1)
--
compound: CCCCn1c(=O)c(C(=O)NCc2ccccc2Cl)c(O)c2ccccc21
targetOfAssay: SF-268 CNS
group: no (0)

Asked: Would you kindly verify if growth of C[N+]1(CC#CC[N+]2(C)CCCC2)CCCC1 is strictly less than 50%?
Given back: no (0)

Asked: Does the reported growth of [N-]=[N+]=CC(=O)CCC(=O)C=[N+]=[N-] stay below 50%?
Given back: no (0)

* * *

Test system: 786-0 renal
experimentSummary: NCI-60 one-dose screen, 48 h (100 = growth as untreated, 0 = no growth, -100 = all killed)
testSettings: 10 µM unless noted
This is part of a sample that, as a whole, favours compounds with a hit. Of some 83,000 tested, about 20% had one in any assay.
# binarize growth: threshold 80% inclusive, high side true (1), low side false (0)

Reference set, count: 5
compound: Cc1cc[c-]cc1.Fc1c[c-]c(-c2ccccn2)c(F)c1.N#CCC[PH+](CCC#N)c1ccccc1.[Pt+2]
group: false (0)

compound: CSc1cc(/C=C(\C)[C@@H]2C[C@@H]3O[C@]3(C)CCC[C@H](C)[C@H](O)[C@@H](C)C(=O)C(C)(C)[C@@H](O)CC(=O)O2)n(CCNC(=O)OC(C)(C)C)n1
group: false (0)

compound: C[C@]12CC[C@H]3[C@@H](C[C@@H]4SC(Nc5ccccc5)=N[C@@]45C/C(=N/O)CC[C@]35C)[C@@H]1CCC2=O
group: false (0)

compound: C[N+]12CCC34C5=CC(=O)C(=O)C=C5[N+]5(C)C(=O)CC6OCC=C(C1)C(CC32)C6C45 (configuration not stated)
group: true (1)

compound: CC(=O)C(N)Cc1ccccc1 (configuration not stated)
group: true (1)

Asked: Hi, just wondering whether CCN1C(=O)NC(=O)C(C)(N2C(=O)c3c(F)c(F)c(F)c(F)c3C2=O)C1=O (configuration not stated) shows growth of 80% or higher.
Given back: false (0)

Asked: Check this compound for growth at or above 80%: C=CCOC(=O)C(Br)CC (configuration not stated)
Given back: true (1)

Asked: Has CO/N=C1\CC[C@]2(C)[C@H]3CC[C@]4(C)C(=O)CC[C@H]4[C@@H]3C[C@@H]3SC(N)=N[C@@]32C1 a recorded growth greater than or equal to 80%?
Given back: true (1)

Asked: Decide: growth of Cc1ccccc1-n1c(/C=C\c2ccccn2)nc2ccccc2c1=O >= 80%?
Given back: false (0)

Asked: # bool: growth of N#Cc1ccc(Cl)cc1 >= 80%
Given back: true (1)
